ASSAY_SYSTEM: T1, human GIP receptor (human) (UniProt P48546)
T1 sequence (looked up): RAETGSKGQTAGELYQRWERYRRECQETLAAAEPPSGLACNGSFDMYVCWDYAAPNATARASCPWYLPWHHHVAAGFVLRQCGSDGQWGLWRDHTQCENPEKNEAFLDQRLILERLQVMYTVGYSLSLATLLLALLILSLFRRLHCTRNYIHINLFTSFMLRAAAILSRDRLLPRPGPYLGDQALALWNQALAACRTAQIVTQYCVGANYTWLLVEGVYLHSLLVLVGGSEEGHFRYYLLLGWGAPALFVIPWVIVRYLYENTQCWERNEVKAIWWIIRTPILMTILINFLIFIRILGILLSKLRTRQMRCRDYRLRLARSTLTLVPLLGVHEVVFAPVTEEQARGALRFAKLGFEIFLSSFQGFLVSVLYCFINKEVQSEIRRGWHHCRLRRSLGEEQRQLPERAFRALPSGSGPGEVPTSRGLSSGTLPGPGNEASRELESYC
ASSAY_NOTES: cell-based or functional assay
Non-standard residues stand in square brackets, D forms with d. No end group written: not given here. αMePhe(2-F) = C[C@](N)(Cc1ccccc1F)C(=O)O; Aib = CC(C)(N)C(=O)O
READOUT: Relative cAMP EC50 (nM)

>  <BINDER>
YXQGTFTSDFSXXLDKKAQXAFIEYLLEAGPSSGEPPPSGE (synthetic construct; SITE 2: note = 2-Aminoisobutyric Acid; SITE 12: note = L-ornithine; SITE 13: note = alpha-methyl-leucine; SITE 17: note = Lysine is chemically modified through conjugation of the epsilon-amino group of the Lysine side chain with (2-[2-(2-Amino-ethoxy)-ethoxy]-acetyl)-(gamma-Glu)) [Example 135]

>  <VALUE_OBSERVED>
0.246

$$$$
>  <BINDER>
YXQGTXTSDXXIXLDXKAQXEFIEXLIEGGPSSGEPPPSGSE (non-natural residues, C-terminal amide, acylated Lys with fatty diacid; synthetic construct; SITE 2: note = 2-Aminoisobutyric Acid; SITE 6: note = alpha-methyl-2-fluoro-L-phenylalanine; SITE 10: note = 3-(4-Pyridyl)-L-alanine; SITE 11: note = alpha-methyl-L-serine; SITE 13: note = alpha-methyl-leucine; SITE 16: note = L-ornithine; SITE 17: note = Lysine is chemically mo) [Example 1179]

>  <VALUE_OBSERVED>
0.0102

$$$$
>  <BINDER>
Y[Aib]QGT[αMePhe(2-F)]TSDYSILLDKQAAKAFIEYLIEGGPSSGEPPPSEG-NH2 (not fully specified (residue 20)) [Example 331]

>  <VALUE_OBSERVED>
0.148

$$$$
>  <BINDER>
YXQGTXTSDXSILLDKKAQXAFIEYLXEGGPSSGAPPPSGTGE (synthetic construct; SITE 2: note = 2-Aminoisobutyric Acid; SITE 6: note = alpha-methyl-2-fluoro-L-phenylalanine; SITE 10: note = 3-(4-Pyridyl)-L-alanine; SITE 17: note = Lysine is chemically modified through conjugation of the epsilon-amino group of the Lysine side chain with (2-[2-(2-Amino-ethoxy))) [Example 663 (SEQ ID NO: 669)]

>  <VALUE_OBSERVED>
0.0893

$$$$
>  <BINDER>
YXQGTXTSDXXIXLDXKYQXEFIEXLVEGGPSSGAPPPSGS (synthetic construct; SITE 2: note = 2-Aminoisobutyric Acid; SITE 6: note = alpha-methyl-2-fluoro-L-phenylalanine; SITE 10: note = 3-(4-Pyridyl)-L-alanine; SITE 11: note = alpha-methyl-L-serine; SITE 13: note = alpha-methyl-leucine; SITE 16: note = L-ornithine; SITE 17: note = Lysine is chemically mo) [Example 767]

>  <VALUE_OBSERVED>
0.00792

$$$$
>  <BINDER>
YXQGTFTSDFSXXLDKKAQXAFIEWLLEGGHSSGAPPPGGE (synthetic construct; SITE 2: note = 2-Aminoisobutyric Acid; SITE 12: note = L-ornithine; SITE 13: note = alpha-methyl-leucine; SITE 17: note = Lysine is chemically modified through conjugation of the epsilon-amino group of the Lysine side chain with (2-[2-(2-Amino-ethoxy)-ethoxy]-acetyl)-(gamma-Glu)) [Example 273]

>  <VALUE_OBSERVED>
0.243

$$$$
>  <BINDER>
YXQGTFTSDFSKXLDKKAQXAFIEYLLAGGPSSGEPPPSSE (acylated Lys, C-terminal amide, non-natural residues; synthetic construct; SITE 2: note = 2-Aminoisobutyric Acid; SITE 13: note = alpha-methyl-leucine; SITE 17: note = Lysine is chemically modified through conjugation of the epsilon-amino group of the Lysine side chain with (2-[2-(2-Amino-ethoxy)-ethoxy]-acetyl)2-(gamma-Glu)-CO-(CH2 )18-CO2H; SITE 20:) [Example 5]

>  <VALUE_OBSERVED>
0.177

$$$$
>  <BINDER>
YXQGTXTSDYSILLDXKAQXAFIEYLLEGGPSSGAPPPS (synthetic construct; SITE 2: note = 2-Aminoisobutyric Acid; SITE 6: note = alpha-methyl-2-fluoro-L-phenylalanine; SITE 16: note = L-ornithine; SITE 17: note = Lysine is chemically modified through conjugation of the epsilon-amino group of the Lysine side chain with (2-[2-(2-Amino-ethoxy)-ethoxy]-ace)) [Example 427]

>  <VALUE_OBSERVED>
0.0121

$$$$
>  <BINDER>
YXQGTFTSDFSKXLDKKAQXAFIEYLLEXGPSSGEPPPSEG (Aib, αMeL; acylated Lys; C-terminal amide; synthetic construct; SITE 2: note = 2-Aminoisobutyric Acid; SITE 13: note = alpha-methyl-leucine; SITE 17: note = Lysine is chemically modified through conjugation of the epsilon-amino group of the Lysine side chain with (2-[2-(2-Amino-ethoxy)-ethoxy]-acetyl)-(gamma-Glu)-CO-(CH2) 16-CO2H; SITE 20: n) [Example 46]

>  <VALUE_OBSERVED>
0.0947

$$$$
>  <BINDER>
YXQGTFTSDFSXXLDKKAQXAFIEYLLEGGPSSGAPPPSEG (synthetic construct; SITE 2: note = 2-Aminoisobutyric Acid; SITE 12: note = L-ornithine; SITE 13: note = alpha-methyl-leucine; SITE 17: note = Lysine is chemically modified through conjugation of the epsilon-amino group of the Lysine side chain with (2-[2-(2-Amino-ethoxy)-ethoxy]-acetyl)-(gamma-Glu)) [Example 50]

>  <VALUE_OBSERVED>
0.29

$$$$
>  <BINDER>
YXQGTFTSDFSKXLDKKAQXAFIEYLLAGGPSSGEPPPSGE (Aib, αMeL; acylated Lys; C-terminal amide; synthetic construct; SITE 2: note = 2-Aminoisobutyric Acid; SITE 13: note = alpha-methyl-leucine; SITE 17: note = Lysine is chemically modified through conjugation of the epsilon-amino group of the Lysine side chain with (2-[2-(2-Amino-ethoxy)-ethoxy]-acetyl)-(gamma-Glu)-CO-(CH2) 18-CO2H; SITE 20: n) [Example 2]

>  <VALUE_OBSERVED>
0.207

$$$$
>  <BINDER>
YXQGTFTSDFSKXLDKKAQXAFIEYLIEXGPSSGAPPPSGS (synthetic construct; SITE 2: note = 2-Aminoisobutyric Acid; SITE 13: note = alpha-methyl-leucine; SITE 17: note = Lysine is chemically modified through conjugation of the epsilon-amino group of the Lysine side chain with (2-[2-(2-Amino-ethoxy)-ethoxy]-acetyl)-(gamma-Glu)-CO-(CH2) 16-CO2H; SITE 20: n) [Example 797]

>  <VALUE_OBSERVED>
0.0781

$$$$
